ASSAY REMARKS: Cytotoxicity against ovarian carcinoma A2780 cell lines
Type: functional, cell-based
PROTOCOL CONDITIONS: Homo sapiens
EXPERIMENTAL READOUT: IC50

1) CN(C)CCNc1c2cc(NC(=O)CCN3CCCC3)ccc2nc2ccc(NC(=O)CCN3CCCC3)cc12 ... 11 µM

INPUT: Name the reported IC50 value associated with the molecule CN(C)c1cccc(Nc2c3ccc(NC(=O)CCN4CCCC4)cc3nc3cc(NC(=O)CCN4CCCC4)ccc23)c1
OUTPUT: 7.9 µM

INPUT: Lookup CSc1ccccc1Nc1c2ccc(NC(=O)CCN3CCCC3)cc2nc2cc(NC(=O)CCN3CCCC3)ccc12
OUTPUT: 0.1 µM

INPUT: Lookup O=C(CCN1CCCC1)Nc1ccc2c(NC3CCCCC3)c3cc(NC(=O)CCN4CCCC4)ccc3nc2c1
OUTPUT: 10 µM

* * *

SYSTEM: Telomerase reverse transcriptase (Homo sapiens)
ASSAY REMARKS: Inhibitory activity against human telomerase
Known EC50 of a selection of compounds
Respond numerically; units are nM and should not be typed.

1) CN(C)c1ccc(Nc2c3cc(NC(=O)CCN4CCCC4)ccc3nc3ccc(NC(=O)CCN4CCCC4)cc23)cc1 ... 500
2) CSc1ccccc1Nc1c2ccc(NC(=O)CCN3CCCC3)cc2nc2cc(NC(=O)CCN3CCCC3)ccc12 ... 150
3) Nc1ccccc1Nc1c2ccc(NC(=O)CCN3CCCC3)cc2nc2cc(NC(=O)CCN3CCCC3)ccc12 ... 20
4) Nc1ccccc1Nc1c2ccc(NC(=O)CCN3CCCC3)cc2nc2ccc(NC(=O)CCN3CCCC3)cc12 ... 110

# ---- query compound ----
INPUT: Name the reported EC50 value associated with the compound O=C(CCN1CCCC1)Nc1ccc2nc3ccc(NC(=O)CCN4CCCC4)cc3c(Nc3ccccc3)c2c1
OUTPUT: 1290

* * *

ASSAY REMARKS: Cytotoxicity against ovarian carcinoma A2780 cell lines
Assay type: functional, cell-based
PROTOCOL CONDITIONS: Homo sapiens
Known IC50 of a selection of molecules
Respond numerically; units are µM and should not be typed.

The following molecules have reported results that may help.
1) O=C(CCN1CCCC1)Nc1ccc2c(NC3CCCCC3)c3ccc(NC(=O)CCN4CCCC4)cc3nc2c1 ... 12.5
2) O=C(CCN1CCCC1)Nc1ccc2c(Nc3ccccc3)c3cc(NC(=O)CCN4CCCC4)ccc3nc2c1 ... 5.6
3) CC(=O)c1ccc(Nc2c3ccc(NC(=O)CCN4CCCC4)cc3nc3cc(NC(=O)CCN4CCCC4)ccc23)cc1 ... 3.2
4) O=C(CCN1CCCC1)Nc1ccc2c(NC3CCCCCC3)c3ccc(NC(=O)CCN4CCCC4)cc3nc2c1 ... 3.2
5) O=C(CCN1CCCC1)Nc1ccc2cc3ccc(NC(=O)CCN4CCCC4)cc3nc2c1 ... 2.6

INPUT: Name the reported IC50 value associated with the molecule Nc1cccc(Nc2c3cc(NC(=O)CCN4CCCC4)ccc3nc3ccc(NC(=O)CCN4CCCC4)cc23)c1
OUTPUT: 6.3

INPUT: Lookup COCCNc1c2ccc(NC(=O)CCN3CCCC3)cc2nc2cc(NC(=O)CCN3CCCC3)ccc12
OUTPUT: 10

INPUT: Lookup O=C(CCN1CCCC1)Nc1ccc2c(NC3CC3)c3ccc(NC(=O)CCN4CCCC4)cc3nc2c1
OUTPUT: 19

INPUT: Lookup CN(C)c1ccc(Nc2c3cc(NC(=O)CCN4CCCC4)ccc3nc3ccc(NC(=O)CCN4CCCC4)cc23)cc1
OUTPUT: 19

INPUT: Lookup Nc1ccccc1Nc1c2ccc(NC(=O)CCN3CCCC3)cc2nc2ccc(NC(=O)CCN3CCCC3)cc12
OUTPUT: 15.8

INPUT: Lookup CN(C)c1ccc(Nc2c3ccc(NC(=O)CCN4CCCC4)cc3nc3ccc(NC(=O)CCN4CCCC4)cc23)cc1
OUTPUT: 7.9

INPUT: Lookup Nc1cccc(Nc2c3ccc(NC(=O)CCN4CCCC4)cc3nc3cc(NC(=O)CCN4CCCC4)ccc23)c1
OUTPUT: 12.6

INPUT: Lookup O=C(CCN1CCCC1)Nc1ccc2nc3ccc(NC(=O)CCN4CCCC4)cc3c(Nc3ccccc3)c2c1
OUTPUT: 2.6

* * *

Known EC50 of a selection of compounds
SYSTEM: Telomerase reverse transcriptase (Homo sapiens, UniProt O14746)
Sequence (O14746 whole entry): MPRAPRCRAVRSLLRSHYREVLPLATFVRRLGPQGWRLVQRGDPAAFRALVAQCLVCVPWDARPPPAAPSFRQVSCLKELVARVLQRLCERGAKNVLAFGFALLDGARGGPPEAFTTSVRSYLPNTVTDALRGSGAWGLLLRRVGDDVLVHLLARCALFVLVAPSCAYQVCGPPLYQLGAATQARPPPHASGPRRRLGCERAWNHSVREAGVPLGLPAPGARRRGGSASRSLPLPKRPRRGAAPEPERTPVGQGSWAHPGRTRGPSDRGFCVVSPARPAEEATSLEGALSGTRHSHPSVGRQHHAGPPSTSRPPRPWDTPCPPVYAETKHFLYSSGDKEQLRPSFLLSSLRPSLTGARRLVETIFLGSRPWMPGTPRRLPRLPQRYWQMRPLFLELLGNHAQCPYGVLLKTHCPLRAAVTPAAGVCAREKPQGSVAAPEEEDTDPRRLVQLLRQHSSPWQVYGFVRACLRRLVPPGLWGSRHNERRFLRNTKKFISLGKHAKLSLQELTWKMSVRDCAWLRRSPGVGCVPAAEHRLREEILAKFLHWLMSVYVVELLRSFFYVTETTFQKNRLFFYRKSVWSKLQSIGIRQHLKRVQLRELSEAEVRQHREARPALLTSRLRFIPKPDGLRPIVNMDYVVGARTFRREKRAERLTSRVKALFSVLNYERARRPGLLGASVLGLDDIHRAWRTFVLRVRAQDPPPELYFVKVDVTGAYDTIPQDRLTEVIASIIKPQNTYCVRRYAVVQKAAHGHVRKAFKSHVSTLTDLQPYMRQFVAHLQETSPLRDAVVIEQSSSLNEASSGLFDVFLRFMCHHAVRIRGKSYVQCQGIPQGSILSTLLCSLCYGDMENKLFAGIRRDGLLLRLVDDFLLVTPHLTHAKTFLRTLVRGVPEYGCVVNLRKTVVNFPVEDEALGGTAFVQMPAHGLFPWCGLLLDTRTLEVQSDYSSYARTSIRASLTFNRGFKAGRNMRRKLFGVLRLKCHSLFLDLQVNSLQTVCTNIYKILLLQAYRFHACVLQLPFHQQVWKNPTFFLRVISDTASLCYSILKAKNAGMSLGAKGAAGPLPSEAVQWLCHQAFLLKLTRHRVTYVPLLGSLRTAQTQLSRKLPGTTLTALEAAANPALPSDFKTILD
ASSAY REMARKS: Inhibitory activity against human telomerase
Output should be the measured figure followed by the unit it is expressed in.

1. CC(=O)Nc1cccc(Nc2c3ccc(NC(=O)CCN4CCCC4)cc3nc3cc(NC(=O)CCN4CCCC4)ccc23)c1 ... 100 nM

INPUT: Name the reported EC50 value associated with the compound CN(C)CCCNc1c2ccc(NC(=O)CCN3CCCC3)cc2nc2cc(NC(=O)CCN3CCCC3)ccc12
OUTPUT: 60 nM

INPUT: Lookup CN(C)CCNc1c2cc(NC(=O)CCN3CCCC3)ccc2nc2ccc(NC(=O)CCN3CCCC3)cc12
OUTPUT: 570 nM

INPUT: Lookup CN(C)CCNc1c2ccc(NC(=O)CCN3CCCC3)cc2nc2ccc(NC(=O)CCN3CCCC3)cc12
OUTPUT: 270 nM

INPUT: Lookup Nc1ccc(Nc2c3ccc(NC(=O)CCN4CCCC4)cc3nc3cc(NC(=O)CCN4CCCC4)ccc23)cc1
OUTPUT: 74 nM

INPUT: Lookup O=C(CCN1CCCC1)Nc1ccc2cc3ccc(NC(=O)CCN4CCCC4)cc3nc2c1
OUTPUT: 5200 nM

INPUT: Lookup Nc1cccc(Nc2c3cc(NC(=O)CCN4CCCC4)ccc3nc3ccc(NC(=O)CCN4CCCC4)cc23)c1
OUTPUT: 1090 nM

INPUT: Lookup CN(C)c1ccc(Nc2c3ccc(NC(=O)CCN4CCCC4)cc3nc3ccc(NC(=O)CCN4CCCC4)cc23)cc1
OUTPUT: 170 nM

* * *

ASSAY REMARKS: Cytotoxicity against ovarian carcinoma A2780 cell lines
Type: functional, cell-based
PROTOCOL CONDITIONS: Homo sapiens
EXPERIMENTAL READOUT: IC50

The following compounds have reported results that may help.
1) CN1CCCC1CCNc1c2ccc(NC(=O)CCN3CCCC3)cc2nc2cc(NC(=O)CCN3CCCC3)ccc12 (configuration not stated) ... > 25 µM
2) CN(C)c1cccc(Nc2c3cc(NC(=O)CCN4CCCC4)ccc3nc3ccc(NC(=O)CCN4CCCC4)cc23)c1 ... 3.2 µM
3) Nc1ccccc1Nc1c2ccc(NC(=O)CCN3CCCC3)cc2nc2cc(NC(=O)CCN3CCCC3)ccc12 ... 11 µM
4) COc1ccc(Nc2c3cc(NC(=O)CCN4CCCC4)ccc3nc3ccc(NC(=O)CCN4CCCC4)cc23)cc1 ... 10 µM
5) O=C(CCN1CCCC1)Nc1ccc2c(Nc3ccc(F)cc3)c3ccc(NC(=O)CCN4CCCC4)cc3nc2c1 ... 3.2 µM

INPUT: Name the reported IC50 value associated with the compound O=C(CCN1CCCC1)Nc1ccc2nc3ccc(NC(=O)CCN4CCCC4)cc3c(Nc3ccccc3O)c2c1
OUTPUT: 10 µM

INPUT: Lookup O=C(CCN1CCCC1)Nc1ccc2c(NCCN3CCCCC3)c3ccc(NC(=O)CCN4CCCC4)cc3nc2c1
OUTPUT: 12.6 µM

INPUT: Lookup Nc1ccccc1Nc1c2cc(NC(=O)CCN3CCCC3)ccc2nc2ccc(NC(=O)CCN3CCCC3)cc12
OUTPUT: 17.8 µM

INPUT: Lookup CSc1cccc(Nc2c3ccc(NC(=O)CCN4CCCC4)cc3nc3cc(NC(=O)CCN4CCCC4)ccc23)c1
OUTPUT: 2.8 µM

INPUT: Lookup Nc1ccc(Nc2c3ccc(NC(=O)CCN4CCCC4)cc3nc3cc(NC(=O)CCN4CCCC4)ccc23)cc1
OUTPUT: 25 µM

INPUT: Lookup COc1cccc(Nc2c3cc(NC(=O)CCN4CCCC4)ccc3nc3ccc(NC(=O)CCN4CCCC4)cc23)c1
OUTPUT: 2.5 µM

INPUT: Lookup CC(=O)Nc1cccc(Nc2c3ccc(NC(=O)CCN4CCCC4)cc3nc3cc(NC(=O)CCN4CCCC4)ccc23)c1
OUTPUT: > 25 µM

INPUT: Lookup CN(C)c1ccc(Nc2c3ccc(NC(=O)CCN4CCCC4)cc3nc3cc(NC(=O)CCN4CCCC4)ccc23)cc1
OUTPUT: 10 µM

INPUT: Lookup O=C(CCN1CCCC1)Nc1ccc2c(NCc3cccnc3)c3ccc(NC(=O)CCN4CCCC4)cc3nc2c1
OUTPUT: > 25 µM

INPUT: Lookup CN(C)CCCNc1c2ccc(NC(=O)CCN3CCCC3)cc2nc2ccc(NC(=O)CCN3CCCC3)cc12
OUTPUT: > 25 µM

INPUT: Lookup Nc1cccc(Nc2c3ccc(NC(=O)CCN4CCCC4)cc3nc3ccc(NC(=O)CCN4CCCC4)cc23)c1
OUTPUT: 15.8 µM

INPUT: Lookup Nc1ccc(Nc2c3ccc(NC(=O)CCN4CCCC4)cc3nc3ccc(NC(=O)CCN4CCCC4)cc23)cc1
OUTPUT: > 25 µM
